test system: NOMO1; assay: cell viability relative to DMSO control; higher = less cytotoxic; conditions: RPMI 5 mM glucose + 10% FBS; 48 h; 0.0632 µM
endpoint: cell viability (%)
Numbers only, in %.

> print(dat)
                                   compound        endpoint  measured.number
1  CN(C)CC(C)(C)CNc1nn2c(-c3ccccc3)nnc2cc1C1CCC1  cell viability              103
2  CCCCN(CCCC)CC(O)c1cc(Cl)cc2c1-c1ccc(Cl)cc1/C2=C/c1ccc(Cl)cc1 (stereo not drawn)  cell viability              105
3  CCOC(=O)C(C)OC1=CC=CC2=C1\C=C/N(CC(=O)NC3=CC=C4OCCOC4=C3)C2=O (stereo not drawn)  cell viability               91
4      CC1=CC(=CC(=C1C\C2=N\CCN2)C)C(C)(C)C  cell viability              114
5             CCc1ccc(/C=C2/SC(=S)NC2=O)cc1  cell viability             87.2

Give cell viability for all compounds that follow.
1. CC(C(=O)O)c1ccc2c(c1)CC(=O)c1ccccc1S2 (stereo not drawn)
2. Cc1ccc([S+](=O)([O-])OCC(=O)Nc2ccc(C(=O)O)c(O)c2)cc1
3. COc1cccc2c1C(=O)c1c(O)c3c(c(O)c1C2=O)C[C@@](O)(C(=O)CO)C[C@@H]3O[C@H]1C[C@H](N)[C@H](O)[C@H](C)O1
4. N[C@@H]1CONC1=O
5. CCCNC(=O)Nc1ccc(Oc2ncnc3cc(OC)c(OC)cc23)cc1Cl
6. Cc1cccc(Nc2ccncc2[S+](=O)([O-])NC(=O)NC(C)C)c1

Reply:
1. 107
2. 133
3. 102
4. 94.4
5. 86
6. 83

Batch: cell viability for all items listed.
1. O=C(O)c1cc(/N=N/c2ccc([S+](=O)([O-])Nc3ccccn3)cc2)ccc1O
2. CNCC[C@H](Oc1cccc2ccccc12)c1cccs1

Reply:
1. 99.2
2. 120

---

test system: P12-Ichikawa; assay: cell viability relative to DMSO control; higher = less cytotoxic; details: RPMI 5 mM glucose + 10% dialyzed FBS; 48 h; 0.00234 µM
endpoint: cell viability

Known results for molecules:
> print(dat)
                                   molecule  result
1  Cc1cccc(Nc2ccncc2[S+](=O)([O-])NC(=O)NC(C)C)c1   89.3%
2  CCCCN(CCCC)CC(O)c1cc(Cl)cc2c1-c1ccc(Cl)cc1/C2=C/c1ccc(Cl)cc1 (stereo not drawn)   99.7%
3  COc1ccc(C(=O)CC2(O)C(=O)Nc3c(Cl)ccc(Cl)c32)cc1 (stereo not drawn)    116%

Each molecule below has a reported value. Please supply its cell viability.
1. CCOC(=O)\C1=C\[C@]2(CC)CCCN3CCC4=C([C@H]23)[N]1C5=C4C=CC=C5
2. C[C@@H](CN1CC(=O)NC(=O)C1)N1CC(=O)NC(=O)C1
3. CNC(=O)c1ccc(Nc2cc(Nc3ccccc3[S+](=O)([O-])C(C)C)c3cc[nH]c3n2)nc1
4. CC(C)(O)CC(=O)NCCn1ccc2ncnc(Nc3ccc(Oc4cccc(C(F)(F)F)c4)c(Cl)c3)c21
5. C[C@@H]1CCO[C@H]2CN\3/C=C(/C(=O)NCC4=C(F)C=C(F)C=C4)C(=O)\C(=C3C(=O)N12)O

Reply:
["106%", "108%", "105%", "113%", "97.1%"]

---

Exercise: for every item that follows, state its recorded cell viability.
test system: SEM cells; test: cell viability relative to DMSO control; higher = less cytotoxic; settings: RPMI 5 mM glucose + 10% dialyzed FBS; 48 h; 1.71 µM
Numbers only, in %.

For every record below, what is its cell viability?
1. COc1cccc2c1C(=O)c1c(O)c3c(c(O)c1C2=O)C[C@@](O)(C(=O)CO)C[C@@H]3O[C@H]1C[C@H](N)[C@H](O)[C@H](C)O1
2. CN1CC(=O)N2[C@H](c3ccc4c(c3)OCO4)c3[nH]c4ccccc4c3C[C@@H]2C1=O
3. COc1cc[nH]c2ncc(C(=O)C(=O)N3CCN(C(=O)c4ccccc4)C[C@H]3C)c1-2
4. Cc1cccc(Nc2ccncc2[S+](=O)([O-])NC(=O)NC(C)C)c1

Reply:
9.78
113
101
95.7

---

system: P12-Ichikawa; assay: cell viability relative to DMSO control; higher = less cytotoxic; conditions: RPMI 5 mM glucose + 10% FBS; 48 h; 15.4 µM
Provide the recorded cell viability for the entries that follow.
One number for each entry, in %.

These solved cases illustrate the format of a correct answer.
> print(dat)
                                   molecule  measured.number
1  Nc1ccc([S+](=O)([O-])Nc2ccnn2-c2ccccc2)cc1              109
2               CC12CC3CC(C)(C1)CC(N)(C3)C2              112
3  C[C@@H]1CCO[C@H]2CN\3/C=C(/C(=O)NCC4=C(F)C=C(F)C=C4)C(=O)\C(=C3C(=O)N12)O             91.9
4  CCOC(=O)\C1=C\[C@]2(CC)CCCN3CCC4=C([C@H]23)[N]1C5=C4C=CC=C5              114
5  CC(=O)Oc1ccccc1C(=O)Nc1ncc([N+](=O)[O-])s1             83.5
6      Oc1nc(-c2ccc(C(F)(F)F)cc2)nc2c1CSCC2             96.8

Please go through the list and note cell viability for each molecule.
1. COc1cc[nH]c2ncc(C(=O)C(=O)N3CCN(C(=O)c4ccccc4)C[C@H]3C)c1-2
2. COc1ccc2c(c1)[C@]13CCCCC1C(C2)N(C)CC3 (stereo not given in full)
3. CC1=CC(=CC(=C1C\C2=N\CCN2)C)C(C)(C)C

Reply:
[111, 128, 86.4]

Task item: Find the recorded cell viability belonging to CCCNC(=O)Nc1ccc(Oc2ncnc3cc(OC)c(OC)cc23)cc1Cl and report it.
Reply: 81.3

---

test system: SEM cells; assay: AUC of viability dose-response curve (% viability x log10 dose units); higher = less sensitive; details: RPMI 5 mM glucose + 10% dialyzed FBS; 48 h
So I've got a bunch of compounds here, and I need their AUC of viability dose-response curve values.
Answers are plain numbers.

As a guide, the following entries are already answered.
> print(dat)
                                   compound  measured.number
1  CC(C)(O)CC(=O)NCCn1ccc2ncnc(Nc3ccc(Oc4cccc(C(F)(F)F)c4)c(Cl)c3)c21              432
2  CC(N[C@H]1CCCC[C@@H]1NC(=O)c1ccc(Cl)cc1)c1cccc2ccccc12 (stereo not given in full)              455
3  COc1cc[nH]c2ncc(C(=O)C(=O)N3CCN(C(=O)c4ccccc4)C[C@H]3C)c1-2              428
4  NC(=O)c1ccc(N(C(N)=O)c2c(F)cccc2F)nc1-c1ccc(F)cc1F              411
5  COc1cc2c(cc1OC)CN(CCc1ccc(NC(=O)c3cc(OC)c(OC)cc3NC(=O)c3cnc4ccccc4c3)cc1)CC2              432

Can you give me AUC of viability dose-response curve for all of these, one by one?
1. COc1ccc2c(c1)CN(C)CC2c1ccc(Cl)c(Cl)c1 (stereo not given)
2. ClC/1=C(NCCN2CCOCC2)/C(=O)C3=C(C=CC=N3)C1=O
3. COC1=CC=C2[C@H]3CC[C@]4(C)[C@H](CC[C@H]4[C@@H]3CCC2=C1)NCCCCCCN5C(=O)\C=C/C5=O
4. CC1=CC(=CC(=C1C\C2=N\CCN2)C)C(C)(C)C
5. O=C(O)c1cc(/N=N/c2ccc([S+](=O)([O-])Nc3ccccn3)cc2)ccc1O

Reply:
443
392
408
460
453

---

test system: P12-Ichikawa; test: cell viability relative to DMSO control; higher = less cytotoxic; conditions: HPLM + 10% dialyzed FBS; 48 h; 5.12 µM
Assign cell viability to each entry below.
Numbers only, in %.

Worked set:
compound	measured number
C=C[C@H]1CN2CCC1C[C@@H]2C(O)c1ccnc2ccc(OC)cc12 (some centres undefined)	123
COc1ccc2c(c1)CN(C)CC2c1ccc(Cl)c(Cl)c1 (centres undefined)	133
CC12CC3CC(C)(C1)CC(N)(C3)C2	117
CCOC(=O)C(C)OC1=CC=CC2=C1\C=C/N(CC(=O)NC3=CC=C4OCCOC4=C3)C2=O (centres undefined)	90.5
CC(C)c1cc(C(C)C)c(CC(=O)N[S+](=O)([O-])Oc2c(C(C)C)cccc2C(C)C)c(C(C)C)c1	101

Consider the following items and state reported cell viability for each.
1. Nc1ccc([S+](=O)([O-])Nc2ccnn2-c2ccccc2)cc1
2. CC(N[C@H]1CCCC[C@@H]1NC(=O)c1ccc(Cl)cc1)c1cccc2ccccc12 (some centres undefined)
3. Nc1c2c(nc3ccccc13)CCCC2
4. CC[C@@H]([C@H](C)O)n1ncn(-c2ccc(N3CCN(c4ccc(OCC5CO[C@@](Cn6cncn6)(c6ccc(F)cc6F)C5)cc4)CC3)cc2)c1=O (some centres undefined)
5. Cc1cccc(Nc2ccncc2[S+](=O)([O-])NC(=O)NC(C)C)c1
6. C=CC(=O)Nc1cc2c(Nc3ccc(F)c(Cl)c3)ncnc2cc1OCCCN1CCOCC1
7. COc1ccc(C(=O)c2c(C)n(CCN3CCOCC3)c3cc(I)ccc23)cc1
8. CCc1ccc(/C=C2/SC(=S)NC2=O)cc1

Reply:
1: 105; 2: 114; 3: 109; 4: 90.8; 5: 91.3; 6: 94.3; 7: 39.7; 8: 85.3

Recorded values, source the supplement of paper PMC11451515.
